Data provenance: the supplement of paper PMC9112550

system: Escherichia coli TOP10; assay: shrunken log2 fold change of peptide-encoding DNA abundance (4.5 h post-induction vs induction); higher = less antimicrobial activity (less host growth inhibition); details: time post-induction: 4.5 h; library: site-saturation at positions 5, 18, 19, 20;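 further: peptides expressed intracellularly from a pBAD plasmid library in pooled LB shake-flask culture, induced with 0.3% L-arabinose, DNA abundance read by NGS, three biological replicates, DESeq2 with apeglm shrinkage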
Entry class follows shrunken log2 fold change: low bracket (below -0.4), middle bracket (-0.4 to below 0.1), high bracket (0.1 or more)

Band for the recorded shrunken log2 fold change of RRIRTRPPRLPRPRPRPWVSPRP ?
high bracket

Band for the recorded shrunken log2 fold change of RRIRSRPPRLPRPRPRPNVLPRP ?
high bracket

Band for the recorded shrunken log2 fold change of RRIRARPPRLPRPRPRPYCDPRP ?
low bracket

Band for the recorded shrunken log2 fold change of RRIRNRPPRLPRPRPRPTMHPRP ?
middle bracket

Band for the recorded shrunken log2 fold change of RRIRARPPRLPRPRPRPEAWPRP ?
middle bracket

Band for the recorded shrunken log2 fold change of RRIRFRPPRLPRPRPRPNTNPRP ?
low bracket

Band for the recorded shrunken log2 fold change of RRIRRRPPRLPRPRPRPIIFPRP ?
middle bracket

Band for the recorded shrunken log2 fold change of RRIRQRPPRLPRPRPRPKFDPRP ?
middle bracket

Band for the recorded shrunken log2 fold change of RRIRFRPPRLPRPRPRPCLPPRP ?
low bracket

Band for the recorded shrunken log2 fold change of RRIRPRPPRLPRPRPRPDEQPRP ?
high bracket

Band for the recorded shrunken log2 fold change of RRIRKRPPRLPRPRPRPTPMPRP ?
high bracket

Band for the recorded shrunken log2 fold change of RRIRNRPPRLPRPRPRPVFIPRP ?
low bracket

Band for the recorded shrunken log2 fold change of RRIRIRPPRLPRPRPRPGKEPRP ?
middle bracket

Band for the recorded shrunken log2 fold change of RRIRARPPRLPRPRPRPKMYPRP ?
high bracket
